- measurement.target: RASA1(SH2dom.C-term.) (Homo sapiens)
- Construct: SH2dom.C-term. denotes SH2 domain closest to C-terminus of protein; made in house; host or cells: HEK293 (transient transfection, unpurified extract)
- Sequence (P20936 351-441 limits assumed): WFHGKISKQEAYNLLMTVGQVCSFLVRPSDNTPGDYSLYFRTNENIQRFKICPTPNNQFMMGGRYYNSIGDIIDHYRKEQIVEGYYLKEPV
- test.description: biochemical
- Type: binding
- experimental.context: primary screen, 10 μM; read-out: percent of DMSO vehicle control
Reported remaining activity at 10 µM values for a set of compounds
metric: remaining activity at 10 µM (%)

{"smi": "O=C(COc1ccc2cc(C(=O)Nc3ccccc3)ccc2c1)NCc1ccc(OP(=O)(O)O)c(OP(=O)(O)O)c1", "unit.descriptor": "%", "obs.value": 97}
{"smi": "O=C(CCl)Nc1cccc(CNC(=O)[C@H](Cc2ccc(OP(=O)(O)O)cc2)NC(=O)Cc2ccc(F)cc2)c1", "unit.descriptor": "%", "obs.value": 107}
{"smi": "C/C(=C\\C(=O)N[C@H](C(=O)N1CCC[C@H]1C(=O)N(c1ccccc1)c1ccc(I)cc1)C(C)(C)C)c1ccc(OP(=O)(O)O)cc1", "unit.descriptor": "%", "obs.value": 76.6}
{"smi": "CC(C)(C)[C@H](NC(=O)/C=C/c1ccc(OP(=O)(O)O)cc1)C(=O)N1CCC[C@H]1C(=O)N(c1ccccc1)c1ccc(I)cc1", "unit.descriptor": "%", "obs.value": 123}

---

- measurement.target: PLCG2(SH2dom.C-term.) (Homo sapiens, UniProt P16885)
- Construct: SH2dom.C-term. denotes SH2 domain closest to C-terminus of protein; made in house; host or cells: HEK293 (transient transfection, unpurified extract)
- Sequence (P16885 646-735 limits assumed): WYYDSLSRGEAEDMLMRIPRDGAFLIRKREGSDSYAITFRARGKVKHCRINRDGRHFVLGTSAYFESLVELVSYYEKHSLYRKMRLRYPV
- test.description: biochemical
- Type: binding
- experimental.context: read-out: percent of DMSO vehicle control
Non-standard residues stand in square brackets, D forms with d. Residues, ends and D or L forms follow the SMILES beside them. *: point of attachment. pY = N[C@@H](Cc1ccc(OP(=O)(O)O)cc1)C(=O)O; Caffeoyl = O=C(/C=C/c1ccc(O)c(O)c1)*
Listed next: entries and their corresponding remaining activity at 10 µM.
metric: remaining activity at 10 µM (%)

{"compound": "CC[C@H](C)[C@H](NC(=O)[C@H](CCC(=O)O)NC(=O)[C@H](CCC(=O)O)NC(=O)[C@H](Cc1ccc(OP(=O)(O)O)cc1)NC(=O)/C=C/c1ccc(O)c(O)c1)C(=O)N[C@@H](CCC(=O)O)C(=O)O [Caffeic acid-pYEEIE] (Caffeoyl-[pY]EEIE-OH)", "obs.value": 1.1}
{"compound": "NC(=O)CC[C@H](NC(=O)[C@@H]1CC[C@@H]2CCN(C(=O)CCCCCC#Cc3cccc4c3CN(C3CCC(=O)NC3=O)C4=O)C[C@H](NC(=O)c3cc4cc(C(F)(F)P(=O)(O)O)ccc4[nH]3)C(=O)N21)C(=O)NC(c1ccccc1)c1ccccc1 (stereo partly shown)", "obs.value": 86.3}
{"compound": "CC(=O)N[C@@H](Cc1ccc(CP(=O)(O)O)cc1)C(=O)NC1(C(=O)N[C@@H](CC(N)=O)C(=O)NCCCc2c(O)ccc3ccccc23)CCCCC1", "obs.value": 104}
{"compound": "CC(=O)N1CC[C@H]2CC[C@@H](C(=O)N[C@@H](CCC(N)=O)C(=O)NC(c3ccccc3)c3ccccc3)N2C(=O)[C@@H](NC(=O)c2cc3cc(C(F)(F)P(=O)(O)O)ccc3[nH]2)C1", "obs.value": 98.7}
